Entries and their GI50
Test system: PC-3
Assay: Antiproliferative activity against human PC3 cell line
Assay type: functional
Response body: numeric value in nM, unit text excluded.

Completed entries (count: 5):
compound=COC(=O)CCCC(=O)O[C@@H]1/C=C/C(=O)O[C@@H](C)CCC/C=C/[C@@H]2C[C@H](O)C[C@H]21 target_desc=PC-3 readout_name=GI50 value_measured=40
compound=CC(=O)O[C@@H]1C[C@@H]2[C@H](/C=C/CCC[C@H](C)OC(=O)/C=C/[C@H]2OC(C)=O)C1 target_desc=PC-3 readout_name=GI50 value_measured=2140
compound=C[C@H]1CCC/C=C/[C@@H]2C[C@H](OC(=O)CCCC(=O)O)C[C@H]2[C@H](O)/C=C/C(=O)O1 target_desc=PC-3 readout_name=GI50 value_measured=19500
compound=COC(=O)CCCC(=O)O[C@@H]1C[C@@H]2[C@H](/C=C/CCC[C@H](C)OC(=O)/C=C/[C@H]2OC(=O)CCCC(=O)OC)C1 target_desc=PC-3 readout_name=GI50 value_measured=5010
compound=C[C@H]1CCC/C=C/[C@@H]2C[C@H](OC(=O)CCCC(=O)NCCCCCCO)C[C@H]2[C@H](O)/C=C/C(=O)O1 target_desc=PC-3 readout_name=GI50 value_measured=330

Query: State the recorded GI50 for this entry: CC(=O)O[C@@H]1C[C@H]2[C@H](O)/C=C/C(=O)O[C@@H](C)CCC/C=C/[C@@H]2C1
Result: 40

Query: Would you kindly share the measured GI50 for C[C@H]1CCC/C=C/[C@@H]2C[C@H](O)C[C@H]2[C@H](O)/C=C/C(=O)O1 [BREFELDIN A] ?
Result: 50

Query: I have this compound here, C[C@H]1CCC/C=C/[C@@H]2C[C@H](O)C[C@H]2[C@H](OC(=O)CCCC(=O)O)/C=C/C(=O)O1 , and I need its recorded GI50.
Result: 43600

Query: Reported GI50, compound COC(=O)CCCC(=O)O[C@@H]1C[C@H]2[C@H](O)/C=C/C(=O)O[C@@H](C)CCC/C=C/[C@@H]2C1 : ____
Result: 60

From: ChEMBL document CHEMBL1138048
